condition.info: in DMSO, 298.2 K
readout.type: solubility (mole fraction)

Prompt: Suppose we examine the compound O=c1cc(-c2ccc(O)c(O)c2)oc2cc(O)cc(O)c12 ; what solubility (mole fraction) value has been reported?
Completion: 0.0515

* * *

condition.info: in n-butanol, 303.2 K
readout.type: solubility (mole fraction)
Respond with the number and no other words.

Prompt: Suppose we examine the compound O=c1cc(-c2ccc(O)c(O)c2)oc2cc(O)cc(O)c12 ; what solubility (mole fraction) value has been reported?
Completion: 0.00369

* * *

condition.info: in transcutol, 313.2 K
readout.type: solubility (mole fraction)
Respond with the number and no other words.

Prompt: Suppose we examine the molecule O=c1cc(-c2ccc(O)c(O)c2)oc2cc(O)cc(O)c12 ; what solubility (mole fraction) value has been reported?
Completion: 0.0378

Source: BigSolDB 2.1
